SYSTEM TESTED: bovine trypsin (Bos taurus)
Sequence (P00760 24-246): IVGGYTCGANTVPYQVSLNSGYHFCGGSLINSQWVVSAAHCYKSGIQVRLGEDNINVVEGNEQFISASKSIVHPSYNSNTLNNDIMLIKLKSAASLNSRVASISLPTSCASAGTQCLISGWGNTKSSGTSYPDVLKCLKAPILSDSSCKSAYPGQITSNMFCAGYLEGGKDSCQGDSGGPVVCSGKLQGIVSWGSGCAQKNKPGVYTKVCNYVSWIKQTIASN
METHOD DESCRIPTION: Trypsin inhibitory activity of peptides (BApNA hydrolysis, OD405; IC50, Ki, residual activity)
Assay type: biochemical
MEASUREMENT SETUP: peptide 0.00488 μM
Bridge positions count the residues as written; N and C are the ends. Peptide text beside a SMILES is read from it.
Reported Residual trypsin activity values are given for each entry in this list.
Respond numerically; units are % and should not be typed.

Give its Residual trypsin activity value. Item: CC[C@H](C)[C@@H]1NC(=O)[C@@H]2CCCN2C(=O)[C@@H]2CCCN2C(=O)[C@H]([C@@H](C)CC)NC(=O)[C@H](CO)NC(=O)[C@H](CCCCN)NC(=O)[C@H]([C@@H](C)O)NC(=O)[C@H](C)NC(=O)[C@H](CCCNC(=N)N)NC(=O)CNC(=O)[C@@H](N)CSSC[C@@H](C(=O)N[C@@H](Cc2ccccc2)C(=O)O)NC1=O [BT9] (H-CGRATKSIPPICF-OH; disulfide 1-12; C-terminus assumed)
99.0

Give its Residual trypsin activity value. Item: CC[C@H](C)[C@@H]1NC(=O)[C@H](C)NC(=O)[C@@H]2CCCN2C(=O)[C@H]([C@@H](C)CC)NC(=O)[C@H](CO)NC(=O)[C@H](CCCCN)NC(=O)[C@H]([C@@H](C)O)NC(=O)[C@H](C)NC(=O)[C@H](CCCNC(=N)N)NC(=O)CNC(=O)[C@@H](N)CSSC[C@@H](C(=O)N[C@@H](Cc2ccccc2)C(=O)O)NC1=O [BT10] (H-CGRATKSIPAICF-OH; disulfide 1-12)
99.8

Give its Residual trypsin activity value. Item: CC[C@H](C)[C@@H]1NC(=O)[C@@H]2CCCN2C(=O)[C@@H]2CCCN2C(=O)[C@H]([C@@H](C)CC)NC(=O)[C@H](CO)NC(=O)[C@H](CCCCN)NC(=O)[C@H]([C@@H](C)O)NC(=O)[C@H](C)NC(=O)[C@H](CO)NC(=O)CNC(=O)[C@@H](N)CSSC[C@@H](C(=O)N[C@@H](Cc2ccccc2)C(=O)N2CCC[C@H]2C(=O)N[C@@H](CC(=O)O)C(=O)O)NC1=O [BT6] (H-CGSATKSIPPICFPD-OH; disulfide 1-12; N-terminus and C-terminus assumed)
111.9

Give its Residual trypsin activity value. Item: CC[C@H](C)[C@@H]1NC(=O)[C@H](C)NC(=O)[C@@H]2CCCN2C(=O)[C@H](CC(C)C)NC(=O)[C@H](CO)NC(=O)[C@H](CCCCN)NC(=O)[C@H]([C@@H](C)O)NC(=O)[C@H](C)NC(=O)[C@H](CCCNC(=N)N)NC(=O)CNC(=O)[C@@H](N)CSSC[C@@H](C(=O)N[C@@H](Cc2ccccc2)C(=O)O)NC1=O [BT16] (H-CGRATKSLPAICF-OH; disulfide 1-12; C-terminus assumed)
95.4

Continuing:
Give its Residual trypsin activity value. Item: CC[C@H](C)[C@@H]1NC(=O)[C@@H]2CCCN2C(=O)[C@@H]2CCCN2C(=O)[C@H]([C@@H](C)CC)NC(=O)[C@H](CO)NC(=O)[C@H](CCCCN)NC(=O)[C@H]([C@@H](C)O)NC(=O)[C@H](C)NC(=O)[C@H](CCCNC(=N)N)NC(=O)CNC(=O)[C@@H](N)CSSC[C@@H](C(=O)N[C@@H](Cc2ccccc2)C(=O)N2CCC[C@H]2C(=O)N[C@@H](CC(=O)O)C(=O)O)NC1=O [BT5] (H-CGRATKSIPPICFPD-OH; disulfide 1-12; N-terminus and C-terminus assumed)
103.7

The reported measurements were obtained from patent US20230416329A1.
